# Test system: S. aureus ATCC 29213
# assayInfo: MIC determination, S. aureus ATCC 29213
# Type: cell-based, Staphylococcus aureus
# runConditions: Table 1
Task for the reader: assign each of the following molecules its reported MIC S. aureus ATCC 29213.
Express it in micrograms per ml; write the number only.

Could you tell me which MIC S. aureus ATCC 29213 is on file for Oc1cccc2cccnc12 [Compound 28, 8-hydroxyquinoline] ?
0.5

Could you tell me which MIC S. aureus ATCC 29213 is on file for Oc1cccc2cccnc12 [Compound 94, 8-hydroxyquinoline] ?
2

Could you tell me which MIC S. aureus ATCC 29213 is on file for Oc1ccc(F)c2cccnc12 [Compound 35] ?
1

Could you tell me which MIC S. aureus ATCC 29213 is on file for Oc1ccc(F)c2cccnc12 [Compound 34] ?
1

Could you tell me which MIC S. aureus ATCC 29213 is on file for N#Cc1ccc(OB(c2cccc(Cl)c2)c2cccc(Cl)c2)c2ncccc12 [Compound 19] ?
0.25

Could you tell me which MIC S. aureus ATCC 29213 is on file for Oc1cccc2cccnc12 [Compound 79, 8-hydroxyquinoline] ?
2

Could you tell me which MIC S. aureus ATCC 29213 is on file for Oc1cccc2cccnc12 [Compound 30, 8-hydroxyquinoline] ?
1
